Tested on: SK-OV-3 ovarian
test: NCI-60 one-dose screen, 48 h
conditionDescription: 10 µM unless noted
About 83,000 compounds went through this panel and 20% of them were active in at least one assay; those are over-represented in the sample as a whole. Active and inactive are the calls of the source. How the source made its calls: active means growth percent below 10; inactive means the rest.
Reply using exactly one outcome from active, inactive

**Q:** Short answer needed: outcome of this test for `NC(=Nc1ccccc1)N[N+](=O)[O-]` ?
**A:** inactive

**Q:** Short answer needed: outcome of this test for `N#C[S-].[Au+].c1ccc(CN2[CH-]N(Cc3ccccc3)C(c3ccccc3)=C2c2ccccc2)cc1` ?
**A:** active

**Q:** Short answer needed: outcome of this test for `COc1ccc2c(c1)c(-c1nc(-c3cn(C)c4ncccc34)cs1)cn2CCN1CCOCC1` ?
**A:** inactive

**Q:** Short answer needed: outcome of this test for `O=NN1CCCc2cccc(O)c21` ?
**A:** inactive

**Q:** Short answer needed: outcome of this test for `COC(=O)[C@@H](C)C[C@H](Cc1ccccc1)NC(=O)c1nc([C@@H](C[C@H](C(C)C)N(C)C(=O)[C@@H](NC(=O)[C@H]2CC(=O)CCN2C)C(C)C)OC(C)=O)sc1C(C)C` ?
**A:** inactive
